Sourced from patent US20250011397A1

Target: SARS-CoV-2 Spike on HIV-based pseudotyped virus (Spike plasmid BEI NR52310) (SARS-CoV-2, UniProt P0DTC2 14-1273)
Experiment: cell-based or functional assay
measurementName: IC50 SARS-CoV2 PsV (µg/mL), IgG

Quick check: IC50 SARS-CoV2 PsV (µg/mL), IgG of mAb 128 (antibody, V domains shown) VH: QVQLVQSGAEVKKPGASVKVSCKASGYTFTHYYMHWVRQAPGQGLEWMGIINPSSSSASYSQKFQGRVTMTRDTSTSTVYMELSSLRSEDTAVYYCARDGRYGSGSYPFDYWGQGTLVTVSS VL: DIQMTQSPSSLSASVGDRVTITCRASQNISRYLNWYQQKPGKAPKLLIYDASNLETGVPSRFSGSGSGTDFTLTISSLQPEDFATYYCQQANGFPPTFGQGTKLEIKR ?
> 50 µg/mL

Return reported IC50 SARS-CoV2 PsV (µg/mL), IgG; argument: mAb 120 (antibody, V domains shown, also called IgG 120) VH: QVQLVQSGAEVKKPGASVKVSCKASGYTFTSYDINWVRQAPGQGLEWMGMIDPSGGSTSYAQKFQGRVTMTRDTSTSTVYMELSSLRSEDTAVYYCAKDFGGGTRYDYWYFDLWGRGTLVTVSS VL: EIVMTQSPATLSVSPGERATLSCRASQSVSSRYLAWYQQKPGQAPRLLIYGASTRATGIPARFSGSGSGTEFTLTISSLQSEDFAVYYCQQYYTTPRTFGQGTRLEIKR
> 50 µg/mL

If you can, please state the reported IC50 SARS-CoV2 PsV (µg/mL), IgG value of mAb 108 (antibody, V domains shown) VH: QVQLVQSGAEVKKPGASVKVSCKASGYIFSRYAIHWVRQAPGQGLEWMGWMNPISGNTDYAPNFQGRVTMTRDTSTSTVYMELSSLRSEDTAVYYCAKDGSQLAYLVEYFQHWGQGTLVTVSS VL: DIQMTQSPSSLSASVGDRVTITCRASQVITNNLAWYQQKPGKAPKLLIYDASTLETGVPSRFSGSGSGTDFTLTISSLQPEDFATYYCQQSYTFPYTFGQGTKVEIKR .
> 50 µg/mL
